Biological target: T1, RBFOX1 RRM RbFoxmut (Fox-RRM*) (Homo sapiens, UniProt Q9NWB1 109-208, R118D;E147R;N151S;E152T)
T1 sequence: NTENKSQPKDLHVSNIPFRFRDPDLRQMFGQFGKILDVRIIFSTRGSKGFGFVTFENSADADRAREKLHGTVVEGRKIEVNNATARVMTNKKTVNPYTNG
Experiment: EMSA; HiTS-Eq, 1 nM pool, 10 min; buffer printed only for the single-RNA assays: 10 mM Tris pH 7.5, 150 mM NaCl, 3.4 mM EDTA, 0.001% NP-40, 30 C
Settings: tags: His6 N-terminal (pET28a); label: 5' 32P
Whole data set: some 16,000 sequences, median “ka relative to ugcaugu” near 0.096, cut for the highest 2% near 0.35. The entries come from a sample that favours the highest values as a whole.
// values below are reported binding signal

BINDER	binding signal
GCAUCAA (DNA:RNA) RNA: GGGAGACCGGAAUUCAGAUUGUCCGCAUCAAUUAAAUCCCGUCGUAGCCACCA DNA 1: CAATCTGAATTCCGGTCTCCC DNA 2: TGGTGGCTACGACGGGATT	0.323 KA relative to UGCAUGU
GCCAGGU (DNA:RNA) RNA: GGGAGACCGGAAUUCAGAUUGUCCGCCAGGUUUAAAUCCCGUCGUAGCCACCA DNA 1: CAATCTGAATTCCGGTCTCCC DNA 2: TGGTGGCTACGACGGGATT	0.0955 KA relative to UGCAUGU
